System: ULK2
Readout Kind: Kd

1) Fc1ccc(Nc2nccc(-c3c(-c4ccc(Cl)cc4)nn4ncccc34)n2)cc1F [GW829058]    > 10 µM

----------
Measured %Inh values are reported for all entries that follow.
Tested on: MLK1
Construct: gene MAP3K9
Settings: concentration: 1 μM, replicates: in singlicate; n = 1
Readout Kind: %Inh

1. FC(F)(F)c1cc(Nc2nccc(-c3c(-c4ccc(Cl)cc4)nn4ncccc34)n2)ccc1Cl [GW829351]    0%
2. CN1CCC(n2cnc(-c3ccc(F)cc3)c2-c2ccnc(NC3CCNCC3)n2)CC1 [SB-229482]    38%
3. Cc1ccc(C)c(NC(=O)NCCNc2ccnc(Nc3ccc(F)cc3)n2)c1 [GSK1379878]    0%

----------
Measured %Inh values are reported for all entries that follow.
Tested on: MAP4K4
Conditions: concentration: 1 μM, replicates: in singlicate; n = 1
Readout Kind: %Inh

1) CSc1nn2c(=O)cc(N3CCOCC3)nc2n1Cc1cccc(Cl)c1Cl    22%
2) c1ccc(-c2ccc3c(-c4ccnc(Nc5ccc6c(c5)OCCO6)n4)cnn3n2)cc1    23%
3) CN1CCC(n2cnc(-c3ccc(F)cc3)c2-c2ccnc(NC3CCNCC3)n2)CC1    0%
4) O=c1cc(N2CCOCC2)nc2n(Cc3cccc(Cl)c3)ccn12    0%
5) O=C(Nc1ccccc1F)NC1CCN(c2ccnc(Nc3ccc(F)cc3)n2)C1 (stereo not drawn)    0%
6) Oc1ccc2ncnc(Nc3ccc(OCc4ccccc4)cc3)c2c1    4%
7) CCc1nc(-c2cccc(N(C)S(=O)(=O)c3ccccc3)c2)c(-c2ccnc(Nc3ccc(N4CCN(C(C)=O)CC4)nc3)n2)s1    0%
8) Cl.Cn1ccc(-c2cccc(Nc3ccnc4cc(-c5nccs5)ccc34)c2)n1    20%
9) O=C(Nc1ccccc1)Nc1ccc(Oc2ccc3nccn3n2)cc1    0%

----------
Test system: CLK3
Conditions: concentration: 1 μM, replicates: in singlicate; n = 1
Measured %Inh values are reported for all entries that follow.
Readout Kind: %Inh (%)

1) Cn1ccc2ncnc(Nc3ccc(Oc4cccc(Cl)c4)c(Cl)c3)c21    0
2) Cc1ccc(NC(=O)c2cccc(C#N)c2)cc1-c1ccc(C(=O)Nc2ccncc2)cc1 [GSK1398463]    23
3) C[C@@H]1CCN(C(=O)CO)C[C@@H]1N(C)c1ncnc2[nH]ccc12    0
4) OCCOCCn1ccc2ncnc(Nc3ccc(Oc4cccc(Cl)c4)c(Cl)c3)c21    0
5) O=C(Nc1ccccc1F)NC1CCN(c2ccnc(Nc3ccc(F)cc3)n2)C1 (stereo not drawn) [GSK1379722]    24
6) CSc1nn2c(=O)cc(N3CCOCC3)nc2n1Cc1cccc(Cl)c1Cl [GSK2347225]    100
7) CCn1c(-c2ccncc2)nc2cnccc21 [SB-735216]    0
8) Cl.Cl.c1ccc(-c2cc3ccncc3cc2OC2CCNCC2)cc1 [GSK1122999]    4
9) Cl.c1ccc(Cn2ncc3cc(Nc4ncnc5ccccc45)ccc32)cc1 [GW273749]    0

----------
Test system: LRRK2
Settings: concentration: 1 μM, replicates: in singlicate; n = 1
Readout Kind: %Inh (%)

1. CNc1nccc(-c2c(-c3ccc(F)cc3)ncn2C2CCN(C)CC2)n1    0
2. Cn1ccc2ncnc(Nc3ccc(Oc4cccc(Cl)c4)c(Cl)c3)c21    5
3. O=C(NCCCN1CCCC1=O)c1cnc(NCc2cc(Cl)ccc2Cl)nc1NC1CCNCC1    0
4. COc1ccc(-c2nc3n(c2-c2ccncc2)CCC3)cc1    0
5. OCCOCCn1ccc2ncnc(Nc3ccc(Oc4cccc(Cl)c4)c(Cl)c3)c21    0
6. Fc1cccc(COc2ccc(Nc3ncnc4nn5ccccc5c34)cc2Cl)c1    31
7. Cc1ccc(O)cc1Nc1cc(C(F)(F)F)nc2ccc(-c3ccncc3)cc12    0
8. COC(=O)c1cccc(NC(=O)NCCNc2ccnc(Nc3ccc(F)cc3)n2)c1    0
9. COC(=O)c1c(-c2ccccc2)c2cc(Cl)ccc2c(=O)n1Cc1ccc(S(C)(=O)=O)cc1    2
10. Nc1nc(-c2ccccn2)c(-c2ccnc3ccccc23)s1    0
11. COc1ccc(-c2oc3ncnc(N)c3c2-c2ccc(OC)cc2)cc1    33
12. Clc1ccc(-c2cc(-c3c[nH]nc3-c3ccccn3)ccn2)cc1    46
13. COc1ccc(NC(=O)c2ccc(-c3cc(-c4nnc(C)o4)ccc3C)cc2)cc1    42
14. Fc1cccc(COc2ccc(Nc3ncnc4cc[nH]c34)cc2Cl)c1    9
15. CNc1nccc(-c2c(-c3ccc(F)cc3)ncn2CCCN2CCOCC2)n1    0
16. Fc1cccc(COc2ccc(Nc3ncnc4sc(-c5ccc[nH]5)cc34)cc2Cl)c1    0
17. CS(=O)(=O)CCNCc1ccc(-c2ccc3ncnc(Nc4ccc(OCc5ccccc5)c(Cl)c4)c3c2)o1.Cl    22
18. COc1ccc(Nc2nccc(N3CCC(NC(=O)Nc4ccc5c(c4)OCO5)C3)n2)cc1 (stereo not drawn)    1

----------
Measured %Inh values are reported for all entries that follow.
Test system: CAMK1G
Conditions: concentration: 1 μM, replicates: in singlicate; n = 1
Readout Kind: %Inh

1. COC(=O)c1c(-c2ccccc2)c2cc(Cl)ccc2c(=O)n1Cc1ccc(S(C)(=O)=O)cc1    9%
2. Clc1ccc(-c2cc(-c3c[nH]nc3-c3ccccn3)ccn2)cc1    0%
3. Cl.c1ccc(Cn2ccc3cc(Nc4ncnc5ccccc45)ccc32)cc1    8%
4. CSc1nn2c(=O)cc(N3CCOCC3)nc2n1Cc1cccc(Cl)c1Cl    17%
5. CN1c2ccc(-c3ccc(C(=O)NCCO)cc3)cc2-c2[nH]ncc2S1(=O)=O    0%
6. c1ccc(-c2ccc3c(-c4ccnc(Nc5ccc6c(c5)OCCO6)n4)cnn3n2)cc1    0%

----------
pKd: −log10 of the molar value.
Data export: pKd values recorded with RET.
Readout Kind: pKd

1) Nc1n[nH]c2nnc(-c3ccccc3)cc12    < 5.00
2) O=c1cc(N2CCOCC2)nc2n(Cc3cccc(Cl)c3)ccn12    < 5.00
3) COc1cc2c(Nc3cccc(NC(=O)c4ccccc4)c3)ncnc2cc1OCCCN1CCOCC1    6.96
4) Cl.O=S(=O)(c1cccc(F)c1)c1ccc(Nc2ncnc3cc(Br)sc23)cc1Cl    < 5.00

----------
System: ROS1
Details: concentration: 1 μM, replicates: in singlicate; n = 1
Measured %Inh values are reported for all entries that follow.
Readout Kind: %Inh

1. CCCc1ccc(S(=O)(=O)NC2CCN(c3ccnc(Nc4ccc(OC)cc4)n3)C2)cc1 (stereo not drawn)    5%
2. Nc1nccc2scc(-c3ccc4c(c3)CCN4C(=O)Cc3cc(F)ccc3F)c12    16%
3. C[C@H]1CC[C@@H](C(=O)Nc2ccccc2)CN1c1cc(-c2ccc3c(N)n[nH]c3c2)nc(N)n1    0%
4. Cl.Fc1ccccc1COc1ccc(Nc2ncnc3ccc(-c4nnc(C(F)(F)F)o4)cc23)cc1Cl    11%
5. CSc1ccc(NC2=C(c3ccccc3Cl)C(=O)NC2=O)cc1    0%
6. Nc1nc(-c2ccc3c(N)n[nH]c3c2)cc(N2CCC[C@@H](C(=O)Nc3ccccc3)C2)n1.O=C(O)C(F)(F)F.O=C(O)C(F)(F)F    0%
7. Fc1cccc(COc2ccc(Nc3ncnc4cc[nH]c34)cc2Cl)c1    35%
8. Clc1cc(Nc2ncnc3cc[nH]c23)ccc1OCc1ccccn1    6%
9. CS(=O)(=O)CCNCc1nc(-c2ccc3ncnc(Nc4ccc(OCc5cccc(F)c5)c(Cl)c4)c3c2)cs1.Cl    0%

----------
Tested on: EGFR
Settings: concentration: 1 μM, replicates: in singlicate; n = 1
Readout Kind: %Inh (%)

1. Fc1cccc(COc2ccc(Nc3ncnc4cc[nH]c34)cc2Cl)c1    100
2. COc1ccc(NC(=O)c2ccc(-c3cc(-c4nnc(C)o4)ccc3C)cc2)cc1    14
3. COc1ccc(-c2oc3ncnc(N)c3c2-c2ccc(OC)cc2)cc1    0
4. N#Cc1ccc(Oc2ccc(Nc3ncnc4cc[nH]c34)cc2Cl)cc1    96.7
5. Cc1ccc(C)c(NC(=O)NCCNc2ccnc(Nc3ccc(F)cc3)n2)c1    10
6. CCn1c(-c2ccncc2)nc2cnccc21    0
7. Nc1nc(-c2cccnc2)c(-c2ccnc3ccccc23)s1    0
8. CCC(CC)(CC)n1cnc2c(N)ncnc21    0
9. CS(=O)(=O)CCNCc1nc(-c2ccc3ncnc(Nc4ccc(OCc5cccc(F)c5)c(Cl)c4)c3c2)cs1.Cl    99.9

----------
Test system: TIE2
Construct: gene TEK
Conditions: concentration: 1 μM, replicates: in singlicate; n = 1
Measured %Inh values are reported for all entries that follow.
Readout Kind: %Inh

1) Cl.Fc1ccccc1COc1ccc(Nc2ncnc3ccc(-c4nnc(C(F)(F)F)o4)cc23)cc1Cl [GW424170]    0%
2) Oc1ccc2ncnc(Nc3ccc(OCc4ccccc4)cc3)c2c1 [GI262866]    0%
3) CC(C)(C)c1ccc(-n2cnc3c(N)ncnc32)cc1 [SKF-97263]    0%
4) CNc1nccc(-c2c(-c3ccc(F)cc3)ncn2CCCN2CCOCC2)n1 [SB-222516]    0%
5) CCc1nc(-c2cccc(C)c2)c(-c2ccnc(NC(=O)c3ccccc3)c2)s1    0%
6) Fc1cccc(COc2ccc(Nc3ncnc4sc(-c5ccc[nH]5)cc34)cc2Cl)c1 [GW707818]    16%
7) Cc1ccc(NC(=O)c2cccc(C#N)c2)cc1-c1ccc(C(=O)Nc2ccncc2)cc1 [GSK1398463]    21%
8) Fc1ccc(Nc2nccc(-c3c(-c4ccc(Cl)cc4)nn4ncccc34)n2)cc1F [GW829058]    18%
9) Cl.c1ccc(Cn2ncc3cc(Nc4ncnc5ccccc45)ccc32)cc1 [GW273749]    0%
